Recorded EC50 for the following molecules
# Test system: Radical scavenging activity
# methodSummary: Antioxidant activity assessed as DPPH radical scavenging activity after 20 mins by UV-visible spectrophotometry
# Type: functional
Answer with a number only, understood to be in µg.

Some entries whose results are on file:
molecularString	recordedEndpoint	testResult
C[C@@H]1O[C@@H](OC[C@H]2O[C@@H](Oc3c(-c4ccc(O)c(O)c4)oc4cc(O)cc(O)c4c3=O)[C@H](O)[C@@H](O)[C@@H]2O)[C@H](O)[C@H](O)[C@H]1O	EC50	4.8
O=c1c(O)c(-c2ccc(O)cc2)oc2cc(O)cc(O)c12	EC50	4.4

[ask] Give the reported value of EC50 for this record: O=C(O)/C=C/c1ccc(O)c(O)c1
[reply] 3

[ask] Give the reported value of EC50 for this record: Cc1c(C)c2c(c(C)c1O)CC[C@@](C)(CCC[C@H](C)CCC[C@H](C)CCCC(C)C)O2
[reply] 10.1

[ask] Give the reported value of EC50 for this record: O=c1c(O)c(-c2ccc(O)cc2)oc2cc(O[C@@H]3O[C@H](CO)[C@@H](O)[C@H](O)[C@H]3O)c(O)c(O)c12
[reply] 6.9

----------
# System: Radical scavenging activity
# methodSummary: Antioxidant activity assessed as DPPH radical scavenging activity after 20 mins by UV-visible spectrophotometry
# Assay type: functional
Recorded EC50 for the following compounds
Answer with a number only, understood to be in µg.

Some entries whose results are on file:
> print(dat)
                                   compound  recordedendpoint  testresult
1     O=C(O)c1cc(O)c(O)c(O)c1 [GALLIC ACID]              EC50         1.2
2  O=c1c(O)c(-c2ccc(O)c(O)c2)oc2cc(O[C@@H]3O[C@H](CO)[C@@H](O)[C@H](O)[C@H]3O)c(O)c(O)c12              EC50         4.6

API: the following record is the query input.
[ask] Give the reported value of EC50 for this record: O=c1c(O)c(-c2ccc(O)c(O)c2)oc2cc(O)cc(O)c12 [QUERCETIN]
[reply] 2.3
